Source of measurements: patent US5523321A

Tested on: platelet aggregation induced by U 46 619 (human PRP)
assaySummary: Thrombocyte function in vitro: aggregation by U 46 619 (human PRP)
Type: cell-based
details: BM 13 177, human PRP, stimulant U 46 619, read-out: IC50 for the aggregation
Experimental: 1. Thrombocyte Function In Vitro (Human PRP) BM 13 177 (in the text, BM) and Iloprost are tested in their action on thrombocyte aggregation and thrombocyte shape change against stimulants U 46 619 (9,11-dideoxy,9alpha-11alpha-methanoepoxy PGF2alpha, stable TXA2 agonist) and ADP and the IC50 values are determined. […] Platelet aggregation and shape change are measured as light-optical phenomena in stimulated PRP (platelet rich plasma) samples. […]
observationType: IC50

Enquiry: Which value of IC50 has been reported for O=C(O)COc1ccc(CCNS(=O)(=O)c2ccccc2)cc1 [BM 13 177] in the records?
Return: 1.65 to 6.6 µM
